- method summary: yeast display, Sf9 membrane polyspecificity reagent, FACS + sequencing; frameworks hold sequencing errors
recorded endpoint: polyreactivity (PSR sort gate)

Check out these entries, answers already filled in.
entry sequence	recorded measurement
QVQLVESGGGLVQAGGSLRLSCAASGRTFYSYAMGWYRQAPGKERELVAAISSSSGRTYYADSVKGRFTISRDNAKNTVYLQMNSLKPEDTAVYYCNRAGGYRTTFYSWGQGTQVTVSS	high polyreactivity
QVQLVESGGGLVQAGGSLRLSCAASGLIFGFYAMGWYRQAPGKEWELVAAINSGGITYYADSVKGRFTISRDNAKNTVYLQMNSLKPEDTSVYYCAAVHSRRARYDYWGQGTQVTVSS	low polyreactivity
QVQLVESGGGLVQAGRSLRLSCAASGRIFAQNAMGWYRQAPGKERELVAAISWGGGGTYYADSVKGRFTISRDNAKNTVYLQMNSLKPEDTAVYYCAADSPGFGAWDRYEYWGQGTQVTVSS	low polyreactivity
QVQLVESGGGLGQAGGSLRLSCAASGFTFVYYAMGWYRPAPGKERELVAAISSRGGSTNYADSVKGRFTISRDNAKNTVYLQMNSLKPEDTAVYYCATYFSIQRRGDYWGQGTQVTVSS	high polyreactivity

The reported polyreactivity (PSR sort gate) of the sequence QVQLVESGGGLVQAGGSLRLRCAASGYIIKYNAMGWYRQAPGKERELVAAISSIGGRTYYADSVKGRFTISRDNAKNTVYLQMNSLKPEDTAVYYCNAVGGRYTGWRYDYWGQGPQVTVSS was high polyreactivity

* * *

- method summary: yeast display, Sf9 membrane polyspecificity reagent, FACS + sequencing; frameworks hold sequencing errors
recorded endpoint: polyreactivity (PSR sort gate)

// worked examples, polyreactivity (PSR sort gate) included
entry sequence	polyreactivity (PSR sort gate)
QVQLVESGGGLVQAGGSLRLSCAASGSIYGTNAMGWYRKAPGKEREFVASITWGGGTYYADSVKGRFTISRDNAKNTVYFQMNSLKQEDSAVYYCATERVYTVYYDYDSWGQGTQVTVSS	low polyreactivity
QVQLVESGGGLVQAGGSLRLSCADSGITFPVNDMGWSRQAHGKEREFVADITSSGGNTYYADSVKGRFTISRDNAKNTVYLKMNSLIPEDTAVYYCNADDGYFYVYQGWYEEMDYWGQGNQVTVSS	high polyreactivity
QVQLGESGGGLVQAGGILRLSCAASGSIFARYAMGWYRQPPGKERELVAAISSNSASTYYADSVKGRFTISRDNAKNTVYLQMNCLIPEDTAVYYCATAYRSYWLNDYWGQGTQVTVSS	low polyreactivity
QVQLVESGGGLVQAGGSLRLSCAASGLTFGWYAMGWYRQAPRKERELVAAISWSGSTTYYADSVKGRFTISRDNAKNTVYLQMNSLKPEDTAVYYCAADVSTRPYGYYYWGQGTQVTVSS	high polyreactivity
QVQLVESGGGLVQAGGRLRLICAASGFIFGTYAMGWYRQAPGKEREFDAAINWGGGRTYYADSVKGRFTISRDNAKNTVYLQMISLKAEDTAVYYCNIRLIYYRGSYYSLRFDYWGQGTQVTLSS	high polyreactivity

What the record says about QVQLVESGGGLVQAGGSLRLSCAACGSTFGSYAMGWYRQAPGKERELVADITSGGSTYYADSVKGRFTISRDNAKNTVYLQMNSLKPEDTAVYYCAVEGWWDDYKSGAGEFNYWGQGTQVTVSS : polyreactivity (PSR sort gate) is low polyreactivity

# polyreactivity (PSR sort gate) (sequence: QVQLVESGGGLVQAGGSLRLSCAASGSIFGAYAMGWYRQAPGKERELVAAISSSVDRTYYADSVKGRFTISRDNAKNTVYLQMNSLKPEDTAVYYCAARWGTRDRTKYYYWGQGTQVTVSS ) is high polyreactivity

Form field polyreactivity (PSR sort gate), entry QFQLVESGGGLVQAGGRLRLSCAASGRIFRYSAMGWYRQAPGKERQLVASISSGGSTNYADSVKGRFTISRDNAKNTVYLQMNSLKQEDTAVYYCAARYWVSGFRAGYYWGQGTQVTVSS : high polyreactivity

According to the records, this sequence QVQLVESGGALVQAGVSLRLSCSASGSTFTKYAIRWYRQAPGKERELVAAITRGGSTTYADSVKGRFTISRDNAKNTVYLQMNSLKPEDTAVYFCNAQYQSGYYTSYPERFDYRGQGTQVTVSS displays polyreactivity (PSR sort gate) of low polyreactivity

Lab book: polyreactivity (PSR sort gate) of QVQLVESGGGLVQAGGSLRLSCAASGSTFGEYPMGWYRQAPGKEREFVAAITFSDDSTYYADSVKGRFTISRDNAKNTVYLQMNSLKPEDTAVYYCAAVLSRHYDYWGQGTQVTVSS noted as high polyreactivity

# polyreactivity (PSR sort gate) (sequence: QVQLVESGGGLVQAGGSLRLSCAASGLIFDDYAMGWYRQAPGKERELVAAISLSGGSTFYADSVKGRFTISRDNAKNTVYLQMNSLKAEDTAVYYCAAQARRAYVQTRMYYWGQGTQVTVSS ) is high polyreactivity

* * *

- method summary: yeast display, Sf9 membrane polyspecificity reagent, FACS + sequencing; frameworks hold sequencing errors

entry sequence	polyreactivity (PSR sort gate)
QVQLVESGGGLVQAGGSLRLSCAASGFIFDVYAMGWYRQAPGTERELVAAITSGDGTNYADSVKGRFTISRDNAKNTVYLQMNSLKPEETAVYYCAADDGVTYRGIIFSYWGQGTQVTVSS	low polyreactivity
QVQLVESGGGLVQAGGSLRLSCAASGFIFRYYAMGWYRQAPGKERELVAAITSGGASTYYADSVKGRFTISRDNAKNTVYLQMNSLKPEDTAVYYCAADTSSYSEYDYWGQGTQVTVSS	low polyreactivity

* * *

- method summary: yeast display, Sf9 membrane polyspecificity reagent, FACS + sequencing; frameworks hold sequencing errors
recorded endpoint: polyreactivity (PSR sort gate)

Solved entries (count: 5):
entry sequence	recorded measurement
QVHLVESGGGLVQAGGSLRLSCAASGSIIRYYAMGWYRQAPGKERELVAVITRGGSTYYADSVKGRFTISRDNAKSTVYLQMNSLKPEDTAVYYCAADYWPAGLDRGYWGQGTQVTVSS	low polyreactivity
QVQLVESGGGLVQAGGSLRLSCAASGFIIGRNVMGWYRQAPGKERELVAAISYSGGSTYYADSVKGRFTISRDNAKNTVYLQMNSLKPEDTAVYYCNAEAWVSQDWCQWVAYDYWGQGTQVTVSS	high polyreactivity
QVQLVESGGGLVQAGGSLRLSCAASGNTFDRNAMGWYRQAPGKERELVAGISWRGGSTYYADSVKGRFTISRDNAKNTVYLQMNSLKPEDTAVYYCAAQRRYSTITGYGSWGQGTQVTVSS	high polyreactivity
QVQHVESGGGLVQAGGSLRLSCAASGLTFSSYAMGWYRQAPGKERELVAAISLSGGRTYYADSVKGRFTISRDNAKNTVYLQMNSLKPEDTAVYYCAADPYANWCPYPAWYYGAYNYWGQGTQVTVSS	high polyreactivity
QVQLVESGGGLVQAGGSLRLSCAASGSIFGGYAMGWYRQAPGKERELVARIRGSTGSTYYADSVKGRFTISRDNAKNTVYFQMNSLKPEDTAVYYCNARYKYYRGSGMDSWGQGTQVTVSS	high polyreactivity

Just so you know, measured polyreactivity (PSR sort gate) for QVQLVESGGGLVQAGGSLRLSCAASGITFYRYAMGWYRQAPGKERELVAAISWSGGRTYYADSVKGRFTISRDNAKNTVYLQMNSLKPEDTAVYYCNAYLYPYTRLDYWGQGTQVTVSS came out at high polyreactivity

Measured polyreactivity (PSR sort gate) of QVQLVESGGGLDQAGGSLRLSCAASGSIFEPNAMVWYRQAPGKERELVAAITGGGGTNYADSVKGRFTLSRDNAKYTVYLQMNSLKPEDTAVYYCAKEVDHGDASDMDYWGQGTQVTVSS : low polyreactivity

Sure, the documented polyreactivity (PSR sort gate) for QVQLVESGGGLVQAGGSLRLSCAASGSTFRHYAMGWYRQAPGKERELVAAISIRGGSTNYADSVKGRFTISRDNAKNTVYLQMNSLKPEDTAVYYCNACRLRYIFKSYDYWGQGTQVTVSS is high polyreactivity

Entry QVQLVESGGGLVQAGGSLRLICAASGYIFYDYAMGWYRQAPGKERQLVATITSGGRTYADSVKGRFTISRDNAKNTVYLQMNSLKPEDTAVYYCAVDQYGAMDYWGQGTQVTVSS ; polyreactivity (PSR sort gate) = low polyreactivity

Data point: QVQHVESGRGLVQAGCSLPLSCAASGFTFLAYAMGWYRQAPGKETELVAAISRSGGRTYYADSVKWRFTISRDNAKNTVYLQMNSLKPEDTAVYYCAKRVLTHPGDDYWGQGAQVTVSS ; polyreactivity (PSR sort gate) = high polyreactivity

So for QVHLVDSCGALVQAGGSLSIRCAASGLTIYRYAKGWNRQEPRKETEVVAAISSADRTYYADSVKGRFTISRDNAKNTVYLQMNSLKPEDTAVYYCAARANYFGWTKSYYYWGQGTQVTVSS , the logged polyreactivity (PSR sort gate) turned out to be high polyreactivity
